tested on: MDA-N; test: NCI tumour cell line growth inhibition, 48 h
Calls of active or inactive are those of the source. Cut-off read from the data, not from the text of the source: active = GI50 up to about 1.1 µM and inactive = higher.
RESULT TYPE: GI50

COMPOUND	GI50
Cc1ccc([N+](=O)[O-])c2c(NCCNC(=O)c3cc(C(=O)NCCNc4ccnc5c(C)ccc([N+](=O)[O-])c45)n(C)n3)ccnc12	> 43.7 µM (inactive)
CC(=O)NS(=O)(=O)c1ccc(NCc2cccc3c(=O)c4ccc(Cl)cc4oc23)cc1	42.6 µM (inactive)
CCC1OC(=O)CC(O)C(C)C(OC2OC(C)CC(N(C)C)C2O)C(CC=O)CC(C)C(=O)/C=C/C2(C)OC2C1C (stereo unspecified)	25.8 µM (inactive)
COc1cc(O)c2c(=O)c(OC)c(-c3ccc4c(c3)OCO4)oc2c1OC	> 50 µM (inactive)
CCOC(=O)c1ccc(/N=N/N(C)C(=O)C(C)N)cc1 (stereo unspecified)	78.3 µM (inactive)
CCOC(=O)c1cc(-c2ccc(Cl)cc2)c([N+](=O)[O-])n1C	> 10 µM (inactive)

Dear colleague, could you send me GI50 for each of the items below? Thanks.
1. Cc1ccc2nc3[nH]nc(N)c3nc2c1
2. CC(=O)OC(C)(C)CCC(=O)[C@](C)(O)[C@H]1[C@H](O)C[C@@]2(C)[C@@H]3CCc4c(cc(OC5OC(CO)C(O)C(O)C5O)c(O)c4C)C3(C)C(=O)C[C@]12C (stereo partly specified)
3. Cc1nc(=O)[nH]c(NCCNCCO)c1C(=O)Nc1cccc2cc3ccccc3cc12
4. CCOC(=O)Oc1cc2ccsc2c2c1c1ccccc1n2C(=O)OCC
5. COc1cc2c(cc1O)CC[n+]1cc3c(OC)c(OC)ccc3cc1-2
6. O=C(O)CCCc1ccc2c(c1)CC1(C2)Cc2cc3c(cc2C1)CCCC3

1. 51.1 µM (inactive)
2. > 100 µM (inactive)
3. > 100 µM (inactive)
4. 31 µM (inactive)
5. > 100 µM (inactive)
6. 19.1 µM (inactive)

Dear colleague, could you send me GI50 for each of the items below? Thanks.
1. CC(C)C(=O)/C=C/c1c(Cl)cccc1Cl
2. O=[N+]([O-])c1ccc(/C=N/Nc2nc3ccccc3[nH]2)o1
3. COc1cccc(-c2cc(=O)c3ccc(C)nc3[nH]2)c1

1: 3.05 µM (inactive); 2: 7.57 µM (inactive); 3: 0.0115 µM (active)

###

test system: NCI-H23; assay: NCI tumour cell line growth inhibition, 48 h
Active and inactive are the calls of the source. Cut-off read from the data, not from the text of the source: active = GI50 up to about 1.1 µM and inactive = higher.
Give GI50 for every item shown.

Would you please look over these solved cases?
COMPOUND	GI50
CCCN(CCC)c1cc2c(cc1F)c(=O)c(C(=O)O)cn2-c1ccc(N2CCN(C)CC2)cn1	16.7 µM (inactive)
COc1ccc(C(c2c[nH]c3ccc(Br)cc23)c2c[nH]c3ccc(Br)cc23)cc1	0.367 µM (active)
CCC1OC(=O)CC(O)C(C)C(OC2OC(C)CC(N(C)C)C2O)C(CC=O)CC(C)C(=O)/C=C/C2(C)OC2C1C (stereo unspecified)	19 µM (inactive)

Dear colleague, could you send me GI50 for each of the items below? Thanks.
1. C=CC(C)(C)n1cc(C2=C3OC(=O)C(c4cn(C(C)(C)C=C)c5ccccc45)=C3OC2=O)c2ccccc21
2. CN1CCN(c2ccncc2S(=O)(=O)N2CCN(C)CC2)CC1
3. CCCCN(CC)C(=O)C(=O)C1C(=O)Nc2ccccc2[S+]1[O-] (stereo unspecified)
4. Cc1ccc(S(=O)(=O)OC[C@@H]2CO2)cc1
5. O=C1NC(=O)C2C3C=CC(C12)C1C2C(=O)NC(=O)C2C31 (stereo unspecified)

> 100 µM (inactive)
> 100 µM (inactive)
> 100 µM (inactive)
> 100 µM (inactive)
245 µM (inactive)

Dear colleague, could you send me GI50 for each of the items below? Thanks.
1. c1ccc2c3c(ccc2c1)-c1[nH]ncc1CCO3
2. COC(=O)c1ccccc1/C=C1\Cc2ccc(C)c(C)c2C1=O
3. CN(C)CCNC(=O)c1cnn(C)c1[N+](=O)[O-]

["25.2 µM (inactive)", "> 100 µM (inactive)", "73.5 µM (inactive)"]

###

tested on: OVCAR-5; test: NCI tumour cell line growth inhibition, 48 h
Activity calls are given as the source filed them. Rule as the data show it: active = GI50 up to about 1.1 µM and inactive = higher.
RESULT TYPE: GI50

Dear colleague, could you send me GI50 for each of the items below? Thanks.
1. COc1cc2c(cc1C[N+](C)(C)CSc1ccccc1)-c1ccccc1CC2
2. COc1ccc(/C(=N\NC(=O)C(=O)NN)C(c2ccc(OC)cc2)C2(O)C(=O)Nc3ccccc32)cc1 (centres undefined)
3. COc1ccc(/C=C/C(=O)c2ccc(OC(=O)/C=C/c3ccccc3)cc2)cc1
4. CC(C)CCC[C@@H](C)C1CCC2[C@@H]3CC=C4C[C@@H](C(=O)NCCN(C)C)CC[C@]4(C)C3CC[C@@]21C (some centres undefined)
5. CCOC(=O)c1nc2cc(C(F)(F)F)ccc2nc1Oc1ccc(C(=O)OC)cc1

["12 µM (inactive)", "> 100 µM (inactive)", "> 85.7 µM (inactive)", "> 100 µM (inactive)", "> 100 µM (inactive)"]

Dear colleague, could you send me GI50 for each of the items below? Thanks.
1. O=C(O)[C@@H]1C[C@@H](O)CN1
2. C=C(C)C1Cc2cc(C(C)=O)ccc2O1 (centres undefined)
3. c1ccc2c3c(ccc2c1)-c1[nH]ncc1CCO3
4. NC(=O)C(Nc1ccc(Cl)cc1)c1cc2cc(Br)ccc2nc1Cl (centres undefined)
5. Cn1cnc([N+](=O)[O-])c1Sc1nccn1-c1ccccc1

1: > 100 µM (inactive); 2: > 100 µM (inactive); 3: 25.8 µM (inactive); 4: > 50 µM (inactive); 5: > 100 µM (inactive)

Dear colleague, could you send me GI50 for each of the items below? Thanks.
1. COc1ccc(/C=C2\N=C(SC)N(CN3CCCCC3)C2=O)cc1
2. CO[C@@H]1C[C@H]2[C@@H]3CC[C@H]([C@@H](C)CO)[C@@]3(C)CC[C@@H]2[C@@]2(C)CC[C@H]3C[C@]312
3. CN1CCN(C(=S)N(C)C(=O)c2ccc(Cl)cc2)CC1
4. Cc1cc2nc3c(C(OC4OC(CO)C(O)C(O)C4O)C(O)CO)nn(-c4ccccc4)c3nc2cc1C (centres undefined)

1: > 100 µM (inactive); 2: > 100 µM (inactive); 3: > 100 µM (inactive); 4: > 100 µM (inactive)

###

system: HT-29; assay: NCI tumour cell line growth inhibition, 48 h
Activity calls are given as the source filed them. No stated cut-off is given here; in the data, active = GI50 up to about 1.1 µM and inactive = higher.
Could you please pick one outcome from this set? active, inactive

MOLECULE	CLASS
CCOC(=O)c1cc(C2(OC)CCN(Cc3ccccc3)C2=O)c(-c2cc(C)no2)[nH]1 (centres undefined)	inactive
O=[N+]([O-])c1cccc(/N=N/c2c(O)ccc3ccccc23)c1	inactive
Cc1ccc([N+](=O)[O-])c2c(NCCNC(=O)c3cc(C(=O)NCCNc4ccnc5c(C)ccc([N+](=O)[O-])c45)n(C)n3)ccnc12	inactive

In this assay, the call recorded for C=C1C(=O)O[C@H]2/C=C(/C)C3=CC(=O)[C@@](C)(C[C@@H](OC(=O)/C(C)=C\C)C12)O3 (some centres undefined) was what?
active

In this assay, the call recorded for Cc1ccccc1C(=O)Oc1ccc(O)cc1 was what?
inactive

In this assay, the call recorded for CC1=Nc2c(ccc3c2C(=O)c2ccccc2C3=O)NC(c2cccc3c2CCC3)C1 (centres undefined) was what?
inactive

In this assay, the call recorded for CCOC(=O)C(Cc1ccc(N=NN(C)C)cc1)NC(=O)CC1c2ccccc2-c2ccccc21 (centres undefined) was what?
inactive

In this assay, the call recorded for c1ccc2c3c(ccc2c1)-c1[nH]ncc1CCO3 was what?
inactive

In this assay, the call recorded for CC1=NN=C(N)NC1=CC(Sc1ccc(Cl)cc1)c1c(O)ccc2ccccc12 (centres undefined) was what?
inactive

###

system: NCI/ADR-RES; assay: NCI tumour cell line growth inhibition, 48 h
Activity calls are given as the source filed them. No stated cut-off is given here; in the data, active = GI50 up to about 1.1 µM and inactive = higher.
Could you please pick one outcome from this set? class 1 = active, class 0 = inactive

In this assay, the call recorded for CS(=O)(=O)c1nc(-c2cc3c(c(S(C)(=O)=O)n2)CCCC3)cc2c1CCCC2 was what?
class 0

###

test system: HT-29; assay: NCI tumour cell line growth inhibition, 48 h
Calls of active or inactive are those of the source. Rule as the data show it: active = GI50 up to about 1.1 µM and inactive = higher.
RESULT TYPE: GI50

Would you please look over these solved cases?
SMILES REPR	RESULT TYPE	RESULT
CC1=COC(=O)c2ccccc2N1	GI50	> 100 µM (inactive)
CC1=[N+](C)CCCN1C	GI50	> 100 µM (inactive)
CCCCCCCCCCNC(=S)OCCCC	GI50	19.5 µM (inactive)
Brc1ccc2c(-c3nc(-c4c[nH]c5ccccc45)cs3)c[nH]c2c1	GI50	38.6 µM (inactive)
O=C(CSc1nnc(Cc2ccccc2)o1)Nc1ccccc1Cl	GI50	> 100 µM (inactive)
N#Cc1c(-c2ccc([N+](=O)[O-])cc2)cc(-c2ccc(Nc3ccnc4cc(Cl)ccc34)cc2)nc1N	GI50	2.71 µM (inactive)

Moving on to the next compound.
GI50 for Cc1cc2c(cc1C(=O)c1ccc(N)cc1)OCO2 ?
22.9 µM (inactive)
